Target: COUP transcription factor 2 (Homo sapiens) (UniProt P24468)
Sequence (P24468 whole entry, looked up): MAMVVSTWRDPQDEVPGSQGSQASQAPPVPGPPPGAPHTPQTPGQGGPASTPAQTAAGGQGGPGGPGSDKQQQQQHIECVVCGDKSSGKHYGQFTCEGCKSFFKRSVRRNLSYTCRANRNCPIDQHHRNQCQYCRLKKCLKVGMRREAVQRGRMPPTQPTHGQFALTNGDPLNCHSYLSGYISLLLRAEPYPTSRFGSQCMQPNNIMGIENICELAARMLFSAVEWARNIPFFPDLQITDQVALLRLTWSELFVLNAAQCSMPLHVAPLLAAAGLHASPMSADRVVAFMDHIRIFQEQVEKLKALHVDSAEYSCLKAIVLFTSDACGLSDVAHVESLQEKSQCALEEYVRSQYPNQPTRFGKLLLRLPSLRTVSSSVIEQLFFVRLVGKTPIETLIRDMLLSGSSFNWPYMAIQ
Assay: COUP-TFII reporter suppression in human cells – cell-based, luciferase reporter, HEK293T, luminescence, primary screen (AID 686940);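 note: cells cotransfected with COUP-TFII expression vector driving the NGFI-A reporter; 0% = median of COUP-TF2 test wells and 100% = reporter-only cells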
Conditions: HEK293T NGFI-A luciferase reporter, at 8.6 µM
Among all 370,000 compounds or so, about 2,600 (0.7%) were called active.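 Rule for the calls: active = inhibition above a per-plate cutoff, mean inhibition of test wells between control levels plus 3 SD (cut at about 38% in these data); inactive = the rest.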 The sample as a whole holds a higher share of actives than the screen did.
Outcome field: choose from 1.0 for active, 0.0 for inactive

Use these answered entries as a reference point.
CCCOc1ccc(Cc2c(O)nc(SC)[nH]c2=O)cc1C :: 0.0
COc1cccc(/C=C2\CC3(OC(C)=O)CCCN2C3)c1 (stereo unspecified) :: 0.0
CCCCNC(=O)C[C@H]1C[C@@]2(C(=O)OC)C(=C[C@H](COCc3ccccc3)O[C@@H]2C)N(Cc2ccc(Cl)cc2Cl)C1=O :: 0.0
COC(=O)[C@]12C[C@H](CC(=O)NCc3ccccc3)C(=O)N(CCc3ccc(OC)c(OC)c3)C1=C[C@H](C(C)(C)C)O[C@@H]2C :: 0.0
O=C(NC1CCCCN(Cc2ccc(Cl)cc2)C1=O)c1ccc(Br)cc1 (stereo unspecified) :: 0.0
C=C(C)C1CC23C(=O)C4(C(=O)c5ccccc5)C[C@@]5(C)CCC(CC2C1(C)C)(C4=O)C35OC (stereo partly specified) :: 0.0

I'd appreciate the recorded outcome for `O=C(COc1ncnc2ccccc12)NC(=O)NCc1ccccc1` from this test.
0.0

Status in this test for `NS(=O)(=O)c1ccc(CCNc2nc(C(F)(F)F)nc3ccccc23)cc1` ?
1.0

What classification did `NS(=O)(=O)c1ccc(CCNC(=O)CNC(=O)Cc2ccccc2)cc1` end up with in this test?
0.0

Lab log entry: `Cc1ccccc1OCC(=O)Nc1ccc(N2CCN(C(=O)C(C)C)CC2)c(Cl)c1` — outcome as called in the assay?
1.0

Can you look up the reported call for `c1coc(CCNc2ncnc3ccc(-c4ccc5c(c4)OCO5)cc23)c1` for me?
0.0

// return assay outcome for `CCCOc1ccc(Cc2c(Cl)nc(SC)nc2NC)cc1`
1.0

Please indicate how the test categorized `CC[n+]1cc(C)ccc1/C=C/c1ccc(N(C)C)cc1` .
1.0

What outcome does the record of this test show for `CCOC(=O)[C@]12CCCC=C1N(Cc1ccc(OC)cc1)C(=O)[C@@H]2CC(=O)N1CCOCC1` ?
0.0

Which outcome did this test record for the molecule `CCN(CC)S(=O)(=O)c1ccc(N(C)Cc2ccc(C(F)(F)F)cc2)nc1` ?
1.0

Fill in: this test's call for `CCN(CC)S(=O)(=O)c1ccc(N(C)Cc2cccc(OC)c2OC)nc1` is ___
0.0

// return assay outcome for `COc1cccc(N(C)C(=O)[C@@H](C)[C@@H](O)c2ccc3ccccc3c2)c1`
0.0

Dear all, I need the recorded test outcome for `O=C(N1CCOCC1)N1CC[C@H]2[C@H](CCCN2Cc2ccc(F)cc2)C1` , thank you.
0.0

# lookup: test call for `CCCOc1ccc(Oc2c(Cl)cnn(Cc3cccc4ccccc34)c2=O)cc1`
0.0

For `COc1ccc(CNc2ncnc3ccccc23)cc1` , what call appears in the results of this test?
1.0

I'd appreciate the recorded outcome for `O=C(CSc1nc2ccccc2s1)NN=Cc1ccc(O)cc1O` from this test.
0.0
